Consider the following sequences and their measured switch fluorescence ratio readings.
- Test system: ATP;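 note: ATP exposure 15 min at 22 °C before imaging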
- method-description: switch fluorescence ratio, 500 uM ATP over buffer (Cy3 cluster intensity, sum of 5 cycles each) (fold (ratio)); higher = stronger signal-on switching upon ATP binding; sequences stand for … in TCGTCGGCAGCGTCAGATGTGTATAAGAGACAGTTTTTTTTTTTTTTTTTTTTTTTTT…TC
- run-parameters: aptamer strand: ATP DNA aptamer (quencher-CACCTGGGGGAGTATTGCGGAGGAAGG + anchor), 100 nM annealed; ATP concentration: 500 uM
reported-property: switch fluorescence ratio

{"chain": "ACGGTGTTGG", "numeric-readout": 1.02}
{"chain": "TTTGATCTGT", "numeric-readout": 0.984}
{"chain": "GGCGGAGGGG", "numeric-readout": 0.998}
{"chain": "TTGAAAGGGC", "numeric-readout": 1.02}
{"chain": "GTAAAAGCTC", "numeric-readout": 1.02}
{"chain": "GTAATTGCTG", "numeric-readout": 1.01}
{"chain": "TACATGGGTG", "numeric-readout": 1.01}
{"chain": "CTAGTAGTGT", "numeric-readout": 1.01}
{"chain": "TGTGGGAAAT", "numeric-readout": 0.988}
{"chain": "TTAATTTTCC", "numeric-readout": 1.46}
{"chain": "TTCTTTTAAT", "numeric-readout": 0.99}
{"chain": "ATAAAGTATG", "numeric-readout": 0.99}
{"chain": "CCGTGGGTGT", "numeric-readout": 1.26}
{"chain": "TTTCCGGTTT", "numeric-readout": 1.6}
{"chain": "TAAGTGCAT", "numeric-readout": 1}
{"chain": "TGGGACCCAT", "numeric-readout": 1.02}
{"chain": "ATGGTCAGGT", "numeric-readout": 1.01}
{"chain": "GGTAACAGTG", "numeric-readout": 1.07}
{"chain": "TTTATACCTT", "numeric-readout": 1.07}
{"chain": "ATGTCCTATG", "numeric-readout": 1}
{"chain": "TTGACGACAC", "numeric-readout": 1.67}
{"chain": "TCTTAGAGGG", "numeric-readout": 0.991}
{"chain": "TTTCCTTGCT", "numeric-readout": 1.49}
{"chain": "GAACGAGGGG", "numeric-readout": 1.01}
{"chain": "GGGTTTGTTG", "numeric-readout": 0.988}
{"chain": "GCATTAAGTG", "numeric-readout": 1}
{"chain": "GGAGTTGTGA", "numeric-readout": 0.995}
{"chain": "TCCGTCGCAA", "numeric-readout": 2.23}
{"chain": "TATTTAAAAG", "numeric-readout": 1}
{"chain": "AGGGGAGTGT", "numeric-readout": 0.988}
{"chain": "GCAGGGGAGG", "numeric-readout": 1}
{"chain": "GGCCTCAAAT", "numeric-readout": 1.01}
{"chain": "GTGAGGAGTA", "numeric-readout": 1}
{"chain": "AATGGGTTCA", "numeric-readout": 1.02}
